Cited source: paper PMC11899342

System: MRSA clinical isolates
ASSAY_REMARKS: Antibiotic susceptibility profile of MRSA clinical isolates (EUCAST breakpoints)
Assay type: cell-based, Staphylococcus aureus
CONDITION_DESCRIPTION: MRSA strain 31

| COMPOUND | Drug sensibility profile |
| --- | --- |
| C/C(=C\C(=O)OCCCCCCCCC(=O)O)C[C@@H]1OC[C@H](C[C@@H]2O[C@H]2[C@@H](C)[C@H](C)O)[C@@H](O)[C@H]1O [Mupirocin] | S |
| CN[C@H](CC(C)C)C(=O)N[C@H]1C(=O)N[C@@H](CC(N)=O)C(=O)N[C@H]2C(=O)N[C@H]3C(=O)N[C@H](C(=O)N[C@H](C(=O)O)c4cc(O)cc(O)c4-c4cc3ccc4O)[C@H](O)c3ccc(c(Cl)c3)Oc3cc2cc(c3O[C@@H]2O[C@H](CO)[C@@H](O)[C@H](O)[C@H]2O[C@H]2C[C@](C)(N)[C@H](O)[C@H](C)O2)Oc2ccc(cc2Cl)[C@H]1O [Vancomycin, vancomycin] | S |
| CC[C@H]1OC(=O)[C@H](C)[C@@H](O[C@H]2C[C@@](C)(OC)[C@@H](O)[C@H](C)O2)[C@H](C)[C@@H](O[C@@H]2O[C@H](C)C[C@H](N(C)C)[C@H]2O)[C@](C)(O)C[C@@H](C)C(=O)[C@H](C)[C@@H](O)[C@]1(C)O [ERI, erythromycin] | R |
| Cc1cc(NS(=O)(=O)c2ccc(N)cc2)no1 [SUL, sulfamethoxazole] | S |

* * *

ASSAY_REMARKS: Caco-2 cell monolayer permeability
Type: in vitro ADME, human
CONDITION_DESCRIPTION: human, Caco-2; read-out: Asymmetry index

| SMILES_STRUCTURE | efflux ratio at 2 h, 1 µM |
| --- | --- |
| CCOC(=O)c1[nH]c2cc(F)ccc2c1/N=N/N1CCCC1 | 0.37 |

* * *

Tested on: MRSA clinical isolates
ASSAY_REMARKS: Antibiotic susceptibility profile of MRSA clinical isolates (EUCAST breakpoints)
Format: cell-based, Staphylococcus aureus
CONDITION_DESCRIPTION: MRSA strain 27
VALUE_TYPE: Drug sensibility profile

| MOLECULE | EXPERIMENTAL_VALUE |
| --- | --- |
| CN[C@H](CC(C)C)C(=O)N[C@H]1C(=O)N[C@@H](CC(N)=O)C(=O)N[C@H]2C(=O)N[C@H]3C(=O)N[C@H](C(=O)N[C@H](C(=O)O)c4cc(O)cc(O)c4-c4cc3ccc4O)[C@H](O)c3ccc(c(Cl)c3)Oc3cc2cc(c3O[C@@H]2O[C@H](CO)[C@@H](O)[C@H](O)[C@H]2O[C@H]2C[C@](C)(N)[C@H](O)[C@H](C)O2)Oc2ccc(cc2Cl)[C@H]1O | S |
| CNC(C)C1CCC(N)C(OC2C(N)CC(N)C(OC3OCC(C)(O)C(NC)C3O)C2O)O1 (centres unmarked) | R |
| C/C(=C\C(=O)OCCCCCCCCC(=O)O)C[C@@H]1OC[C@H](C[C@@H]2O[C@H]2[C@@H](C)[C@H](C)O)[C@@H](O)[C@H]1O | S |
| CC(=O)NC[C@H]1CN(c2ccc(N3CCOCC3)c(F)c2)C(=O)O1 | S |
| Cc1cc(NS(=O)(=O)c2ccc(N)cc2)no1 | S |
